Reported values of IgG Potency TGFB Assay IC50 (pM) for individual entries
Target: human αvβ8 integrin on U251 cells (human, UniProt P06756 31-1048)
Assay: cell-based or functional assay
Your answer is read as pM, so omit the unit and give the number.

Solved entries:
1. ADWA11 VH03/VK02 IgG (antibody, V domains shown) VH: EVQLVESGGGLVQPGGSLRLSCAASGFNIKDYYMNWVRQAPGKGLEWVGWIDPDNGNTIYDPKFQGRFTISADNAKNSAYLQMNSLRAEDTAVYYCARRLLMDYWGQGTLVTVSS VL: DIQMTQSPSSLSASVGDRVTITCRSTKSLLHFNGNTYLFWFQQKPGKAPKRLIYYMSNLASGVPSRFSGSGSGTDFTLTISSLQPEDFATYYCMQSLEYPFTFGQGTKVEIK :: 223
2. ADWA11 VH01/VK01 IgG (antibody, V domains shown) VH: EVQLVESGGGLVQPGGSLRLSCAASGFNIKDYYMNWVRQAPGKGLEWVAWIDPDNGNTIYDPKFQGRFTISRDNAKNSLYLQMNSLRAEDTAVYYCARRLLMDYWGQGTLVTVSS VL: DIQMTQSPSSLSASVGDRVTITCRSTKSLLHFNGNTYLFWYQQKPGKAPKRLIYYMSNLASGVPSRFSGSGSGTDFTLTISSLQPEDFATYYCMQSLEYPFTFGQGTKVEIK :: 8470
3. ADWA11 VH03/VK01 IgG (antibody, V domains shown) VH: EVQLVESGGGLVQPGGSLRLSCAASGFNIKDYYMNWVRQAPGKGLEWVGWIDPDNGNTIYDPKFQGRFTISADNAKNSAYLQMNSLRAEDTAVYYCARRLLMDYWGQGTLVTVSS VL: DIQMTQSPSSLSASVGDRVTITCRSTKSLLHFNGNTYLFWYQQKPGKAPKRLIYYMSNLASGVPSRFSGSGSGTDFTLTISSLQPEDFATYYCMQSLEYPFTFGQGTKVEIK :: 138

The record that follows has no IgG Potency TGFB Assay IC50 (pM) shown yet.
Request: IgG Potency TGFB Assay IC50 (pM) lookup needed for ADWA11 VH02/VK01 IgG (antibody, V domains shown) VH: EVQLVESGGGLVQPGGSLRLSCAASGFNIKDYYMNWVRQAPGKGLEWVAWIDPDNGNTIYDPKFQGRFTISADNAKNSLYLQMNSLRAEDTAVYYCARRLLMDYWGQGTLVTVSS VL: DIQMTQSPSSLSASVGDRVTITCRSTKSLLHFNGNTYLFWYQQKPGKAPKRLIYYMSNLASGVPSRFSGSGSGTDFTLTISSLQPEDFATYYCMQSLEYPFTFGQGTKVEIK , thanks.
Result: 1760
